# experimentNotes: Solubility test: apparent solubility in test solutions, HPLC-UV
# Format: physicochemical
# conditionDetails: aqueous buffer, thermodynamic from solid, pH 7: Dulbecco's phosphate-buffered saline, read-out: Solubility at pH 7
Recorded solubility for the following compounds

>>> valueobserved("COc1cc(/C=C2\\CCCN([C@H](c3cc(F)c(F)c(F)c3)[C@@H](C)O)C2=O)ccc1-n1cc(C)[n+](COP(=O)(O)O)c1.O=C([O-])C(F)(F)F")
"> 10000 µg/mL"
>>> valueobserved("Cc1cn(-c2ccc(/C=C3\\O[C@@H](C)CN([C@H](c4cc(F)c(F)c(F)c4)[C@@H](C)O)C3=O)cc2F)c[n+]1COP(=O)(O)O.O=C([O-])C(F)(F)F")
"460 µg/mL"

Next:
The compound "COc1cc(/C=C2\O[C@@H](C)[C@H]3COC[C@@H](c4ccc(Cl)cc4)N3C2=O)ccc1-n1cc(C)[n+](COP(=O)(O)O)c1.O=C([O-])C(F)(F)F" showed solubility equal to > 10000 µg/mL

----------
# experimentNotes: Solubility test: apparent solubility in test solutions, HPLC-UV
# Format: physicochemical
# conditionDetails: diluted McIlvaine buffer solution, aqueous buffer, thermodynamic from solid, pH 5: Diluted Mcllvaine buffer solution, read-out: Solubility at pH 5
experimentalReadout: solubility

>>> valueobserved("COc1cc(/C=C2\\CC[C@H]3CC[C@@H](c4ccc(Cl)cc4)N3C2=O)ccc1-n1cc(C)[n+](COP(=O)(O)O)c1.O=C([O-])C(F)(F)F")
"960 µg/mL"

The compound "COc1cc(/C=C2\CC[C@@H]3CCC[C@@H](c4cc(F)c(F)c(F)c4)N3C2=O)ccc1-n1cc(C)[n+](COP(=O)(O)O)c1.O=C([O-])C(F)(F)F" showed solubility equal to 9590 µg/mL

The compound "COc1cc(/C=C2\CC[C@H]3CCC[C@@H](c4ccc(Cl)cc4)N3C2=O)ccc1-n1cc(C)[n+](COP(=O)(O)O)c1.O=C([O-])C(F)(F)F" showed solubility equal to 9330 µg/mL

The compound "COc1cc(/C=C2\OC(C)(C)[C@H]3COC[C@@H](c4cc(F)c(F)c(F)c4)N3C2=O)ccc1-n1cc(C)[n+](COP(=O)(O)O)c1.O=C([O-])C(F)(F)F" showed solubility equal to > 10000 µg/mL

The compound "COc1cc(/C=C2\O[C@@H](C)CN([C@H](c3cc(F)c(F)c(F)c3)[C@@H](C)O)C2=O)ccc1-n1cc(C)[n+](COP(=O)(O)O)c1.O=C([O-])C(F)(F)F" showed solubility equal to 3440 µg/mL

----------
# experimentNotes: Solubility test: apparent solubility in test solutions, HPLC-UV
# Type: physicochemical
# conditionDetails: diluted McIlvaine buffer solution, aqueous buffer, thermodynamic from solid, pH 5: Diluted Mcllvaine buffer solution, read-out: Solubility at pH 5
experimentalReadout: solubility (µg/mL)
Value expressed in µg/mL; do not type the unit.

>>> valueobserved("Cc1cn(-c2ccc(/C=C3\\O[C@@H](C)CN([C@H](c4cc(F)c(F)c(F)c4)[C@@H](C)O)C3=O)cc2F)c[n+]1COP(=O)(O)O.O=C([O-])C(F)(F)F")
320

Next:
The molecule "COc1cc(/C=C2\CC[C@H]3CC[C@@H](c4cc(F)c(F)c(F)c4)N3C2=O)ccc1-n1cc(C)[n+](COP(=O)(O)O)c1.O=C([O-])C(F)(F)F" showed solubility equal to 9140

----------
# experimentNotes: Solubility test: apparent solubility in test solutions, HPLC-UV
# Format: physicochemical
# conditionDetails: aqueous buffer, thermodynamic from solid, pH 7: Dulbecco's phosphate-buffered saline, read-out: Solubility at pH 7
Recorded solubility for the following compounds
Value expressed in µg/mL; do not type the unit.

Reference set, count: 3
>>> valueobserved("Cc1cn(-c2ccc(/C=C3\\O[C@@H](C)CN([C@H](c4ccc(F)c(F)c4)[C@@H](C)O)C3=O)cc2F)c[n+]1COP(=O)(O)O.O=C([O-])C(F)(F)F")
4720
>>> valueobserved("COc1cc(/C=C2\\O[C@@H](C)[C@H]3CC[C@@H](c4cc(F)c(F)c(F)c4)N3C2=O)ccc1-n1cc(C)[n+](COP(=O)(O)O)c1.O=C([O-])C(F)(F)F")
1120
>>> valueobserved("COc1cc(/C=C2\\CC[C@H]3CC[C@@H](c4ccc(Cl)cc4)N3C2=O)ccc1-n1cc(C)[n+](COP(=O)(O)O)c1.O=C([O-])C(F)(F)F")
1690

The compound "COc1cc(/C=C2\CC[C@H]3CC[C@@H](c4cc(F)c(F)c(F)c4)N3C2=O)ccc1-n1cc(C)[n+](COP(=O)(O)O)c1.O=C([O-])C(F)(F)F" showed solubility equal to 8890

----------
# experimentNotes: Solubility test: apparent solubility in test solutions, HPLC-UV
# Format: physicochemical
# conditionDetails: aqueous buffer, thermodynamic from solid, pH 7: Dulbecco's phosphate-buffered saline, read-out: Solubility at pH 7
solubility below 8000 µg/mL gives Not fulfilled; solubility at or above it gives Fulfilled.

>>> assignedlabel("COc1cc(/C=C2\\CC[C@@H]3CCC[C@@H](c4cc(F)c(F)c(F)c4)N3C2=O)ccc1-n1cc(C)[n+](COP(=O)(O)O)c1.O=C([O-])C(F)(F)F")
"Fulfilled"
>>> assignedlabel("COc1cc(/C=C2\\OC(C)(C)[C@H]3COC[C@@H](c4cc(F)c(F)c(F)c4)N3C2=O)ccc1-n1cc(C)[n+](COP(=O)(O)O)c1.O=C([O-])C(F)(F)F")
"Fulfilled"
>>> assignedlabel("COc1cc(/C=C2\\O[C@@H](C)CN([C@H](c3cc(F)c(F)c(F)c3)[C@@H](C)O)C2=O)ccc1-n1cc(C)[n+](COP(=O)(O)O)c1.O=C([O-])C(F)(F)F")
"Not fulfilled"

query: Would you say "COc1cc(/C=C2\CC[C@H]3CCC[C@@H](c4ccc(Cl)cc4)N3C2=O)ccc1-n1cc(C)[n+](COP(=O)(O)O)c1.O=C([O-])C(F)(F)F" shows solubility at minimum 8000 µg/mL?
result: Fulfilled

query: Would you say "COc1cc(/C=C2\O[C@@H](C)[C@H]3COC[C@@H](c4ccc(F)c(F)c4)N3C2=O)ccc1-n1cc(C)[n+](COP(=O)(O)O)c1.O=C([O-])C(F)(F)F" shows solubility at minimum 8000 µg/mL?
result: Not fulfilled

query: Would you say "COc1cc(/C=C2\CCCN([C@@H](C)c3ccc(F)cc3)C2=O)ccc1-n1cc(C)[n+](COC(C)=O)c1.[I-]" shows solubility at minimum 8000 µg/mL?
result: Not fulfilled

----------
Recorded solubility for the following compounds
# experimentNotes: Solubility test: apparent solubility in test solutions, HPLC-UV
# Format: physicochemical
# conditionDetails: diluted McIlvaine buffer solution, aqueous buffer, thermodynamic from solid, pH 5: Diluted Mcllvaine buffer solution, read-out: Solubility at pH 5
Value expressed in µg/mL; do not type the unit.

Reference set, count: 2
>>> valueobserved("COc1cc(/C=C2\\O[C@@H](C)[C@H]3CC[C@@H](c4cc(F)c(F)c(F)c4)N3C2=O)ccc1-n1cc(C)[n+](COP(=O)(O)O)c1.O=C([O-])C(F)(F)F")
1150
>>> valueobserved("Cc1cn(-c2ccc(/C=C3\\O[C@@H](C)CN([C@H](c4ccc(F)c(F)c4)[C@@H](C)O)C3=O)cc2F)c[n+]1COP(=O)(O)O.O=C([O-])C(F)(F)F")
3450

Next:
The compound "COc1cc(/C=C2\CCCN([C@@H](C)c3ccc(F)cc3)C2=O)ccc1-n1cc(C)[n+](COC(C)=O)c1.[I-]" showed solubility equal to 1240

----------
# experimentNotes: Solubility test: apparent solubility in test solutions, HPLC-UV
# Format: physicochemical
# conditionDetails: diluted McIlvaine buffer solution, aqueous buffer, thermodynamic from solid, pH 5: Diluted Mcllvaine buffer solution, read-out: Solubility at pH 5
experimentalReadout: solubility

The molecule "COc1cc(/C=C2\O[C@@H](C)[C@H]3COC[C@@H](c4ccc(Cl)cc4)N3C2=O)ccc1-n1cc(C)[n+](COP(=O)(O)O)c1.O=C([O-])C(F)(F)F" showed solubility equal to > 10000 µg/mL

The molecule "COc1cc(/C=C2\O[C@@H](C)[C@H]3COC[C@@H](c4cc(F)c(F)c(F)c4)N3C2=O)ccc1-n1cc(C)[n+](COP(=O)(O)O)c1.O=C([O-])C(F)(F)F" showed solubility equal to > 10000 µg/mL

The molecule "COc1cc(/C=C2\CC[C@H]3COC[C@@H](c4cc(F)c(F)c(F)c4)N3C2=O)ccc1-n1cc(C)[n+](COP(=O)(O)O)c1.O=C([O-])C(F)(F)F" showed solubility equal to 7680 µg/mL

The molecule "COc1cc(/C=C2\CCCN([C@H](c3cc(F)c(F)c(F)c3)[C@@H](C)O)C2=O)ccc1-n1cc(C)[n+](COP(=O)(O)O)c1.O=C([O-])C(F)(F)F" showed solubility equal to > 10000 µg/mL
